# experiment: folding stability dG unfold from chymotrypsin proteolysis; higher = more stable
Please mark class 1 if the recorded folding stability dG unfold is equal to or greater than 3 kcal/mol, and class 0 if it falls below.

# seq.string, assigned.label
measured = [
    ("SAGGSAGGSAGGPPLKVTEVETHKHPNGHRYVTMTLRPPNGGPVTIMFDPNNGKIQIMISAGGSAGGSAGGS [r10_1218_TrROS]", "class 1"),
    ("SAGGSAGGSAGVPSLEEVLAELEANPNSDAVVELPDGTRVRIRVERLPGGELRVEREEVLSAGGSAGGSAGG [r11_300_JUSTAS]", "class 0"),
    ("SAEELAEAEARRLGVDPAAVALEVTEEVDPLTGKPRKIVTVTIALPDRAYVITVDASDGTVLERRPLEAASA [r9_1219_JUSTAS]", "class 0"),
    ("SSTSMSTEPNRTVTTTTEKGGRSTVTTTTTTTFTASGETTTTTPVTTTTPPPPLGVYKDPAGVTRTRPLLSA [r9_456_JUSTAS]", "class 0"),
    ("SAGGSAGGSAGGMTLEIEINGLKVRIEFDEETKELRIEVEPAPPPVVVYEKEKLEEEEESAGGSAGGSAGGS [r10_724_TrROS_Hall]", "class 0"),
    ("SAGGSAKKVRIEIERNADGTLRITVTLPDGTKKEITVDKPGMTLEEIAKKLGLPEGAEITEIERVPSAGGSA [r15_167_TrROS_Hall]", "class 0"),
    ("SAGGSAGGSAAVILPEGTLYFTLPDGSRAAATVDPATGTVHIRLYSPDGVPLAEADIPIDPSAGGSAGGSAG [r3_447_TrMRF]", "class 0"),
    ("SAGMPGKIRVEVEAEISEDNVIKLKIKIYGPDGELIDEIEAEIYLPVPPLSPSEGGGLIEAGNPELAEGSAG [r5_944_TrMRF]", "class 1"),
    ("PKYVIKAVNPKVGEVKTIEVDDDPEKAIEALKALKKADPDIKFYISGVKSDELIEAAKEAGLEDLNFTEVES [r1_114_TrMRF]", "class 1"),
    ("SAGGSAGGSAGSITLPDGLTLTWNPATNTLTITLTAPPPPTTTTTTKPAATTTTTTTTTTSAGGSAGGSAGG [r11_331_TrROS_Hall]", "class 0"),
    ("SAGGSAGGMTIKELLKEGVPFKIEMYGPNNGEPREFKIPPGESIDDILENMPFPPGMQIRIEPKSAGGSAGG [r6_232_TrROS]", "class 0"),
    ("SAGGSMTITYDPETNTVTILDPNIPPNEPRPVTLTLPDGEKYTLTLRPVPGNGWTGTLTWKSTKDGSAGGSA [r2_89_TrMRF]", "class 0"),
    ("SPRTTVSFEVYMPPDQLKQNSIEDIADRVRDHFPGYKIKGIDIKFEPYPDPENGRPWVRVTVMIRVEPPESA [r9_1189_TrROS]", "class 1"),
    ("SAGGSAGGSAGMDKDGKWRRIPFMFVNPGDGYIFKWEIWIYPGGNIELEMEIIGPIKPGASAGGSAGGSAGG [r11_226_TrROS]", "class 1"),
]
